target: Human M4 receptors (Homo sapiens, UniProt P08173); construct: expressed in transfected cells; host or cells: HEK293 cells with Promega GloSensor cAMP technology, stably expressing hM4; assay: M4 PAM cAMP assay (GloSensor); format: cell-based; conditions: Emax = maximum asymptote of fitted dose response curve; HEK293 GloSensor cells expressing hM4; with EC20 acetylcholine and isoproterenol; geometric mean of 2-4 determinations unless otherwise indicated
Sequence (P08173 whole entry): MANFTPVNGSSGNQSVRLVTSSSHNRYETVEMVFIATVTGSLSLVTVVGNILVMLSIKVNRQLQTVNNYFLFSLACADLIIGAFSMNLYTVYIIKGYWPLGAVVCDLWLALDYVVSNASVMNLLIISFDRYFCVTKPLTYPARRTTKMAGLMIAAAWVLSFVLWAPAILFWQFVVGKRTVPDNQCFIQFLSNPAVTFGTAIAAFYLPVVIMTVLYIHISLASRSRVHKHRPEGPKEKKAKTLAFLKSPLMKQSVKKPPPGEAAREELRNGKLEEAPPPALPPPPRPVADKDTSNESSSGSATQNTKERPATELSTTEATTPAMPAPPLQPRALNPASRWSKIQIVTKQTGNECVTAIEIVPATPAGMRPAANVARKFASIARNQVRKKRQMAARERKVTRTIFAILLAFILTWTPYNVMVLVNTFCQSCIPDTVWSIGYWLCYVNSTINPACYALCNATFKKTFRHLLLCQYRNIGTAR
Can you tell me M4 glosensor EC50 Mean Asymptote Maximum (%) for the items I'm about to list?
Answers are plain numbers, in %.

Below are worked cases with known answers.
molecule | recorded_result
Cc1cc(C)c2c(n1)CN(C(=O)CC1CN(c3cccnc3)C1)C2C (single isomer, unassigned) [Example 15] | 106
Cc1nc2c(c(C)c1C)CN(C(=O)C[C@@H]1C[C@H]1c1cccnc1)C2 (single isomer, unassigned) [Example 37] | 85.8
Cc1nc2c(c(C)c1C)CN(C(=O)C[C@@H]1C[C@H]1c1cccnc1)C2 (single isomer, unassigned) [Example 38] | 111

// query Which measured M4 glosensor EC50 Mean Asymptote Maximum (%) value corresponds to Cc1cc(C)c2c(n1)CN(C(=O)CC1CN(c3cccnc3)C1)C2C (single isomer, unassigned) [Example 14] ?
// result 62.5
